# Test system: B16
# experiment description: Antiproliferative activity against mouse B16 cells after 72 hrs MTT assay
# Assay type: functional, cell-based
# details: B16, 72 h
measured attribute: pIC50
Scale: negative log10 of molar concentration, which is what pIC50 denotes.

Some compounds with known pIC50 results, for comparison:
chemical string | measured attribute | value
C=C(C)[C@@H]1CC[C@]2(C(=O)O)CC[C@]3(C)[C@H](CC[C@@H]4[C@@]5(C)CCC(=O)[C@@](C)(COC(C)=O)[C@@H]5CC[C@]43C)[C@@H]12 | pIC50 | 4.77
C=C(C)[C@@H]1CC[C@]2(C(=O)OCC)CC[C@]3(C)[C@H](CC[C@@H]4[C@@]5(C)CC/C(=N\O)[C@@](C)(CO)[C@@H]5CC[C@]43C)[C@@H]12 | pIC50 | 4.76
C=C(C)[C@@H]1CC[C@]2(C(=O)N3CCOCC3)CC[C@]3(C)[C@H](CC[C@@H]4[C@@]5(C)CCC(=O)[C@@](C)(COC(C)=O)[C@@H]5CC[C@]43C)[C@@H]12 | pIC50 | 5.09

Query block: Lookup: pIC50 / B16 / C=C(C)[C@@H]1CC[C@]2(C(=O)O[C@@H]3O[C@H](CO)[C@@H](O)[C@H](O)[C@H]3O)CC[C@]3(C)[C@H](CC[C@@H]4[C@@]5(C)CCC(=O)[C@@](C)(CO)[C@@H]5CC[C@]43C)[C@@H]12
Result block: 4.83

Query block: Tell me reported pIC50 for C=C(C)[C@@H]1CC[C@]2(C(=O)NCC(=O)OC)CC[C@]3(C)[C@H](CC[C@@H]4[C@@]5(C)CCC(=O)[C@@](C)(COC(C)=O)[C@@H]5CC[C@]43C)[C@@H]12 , tested with B16.
Result block: 4.97

Query block: Report pIC50 for C=C(C)[C@@H]1CC[C@]2(C(=O)Oc3ccc(C#N)cc3)CC[C@]3(C)[C@H](CC[C@@H]4[C@@]5(C)CCC(=O)[C@@](C)(COC(C)=O)[C@@H]5CC[C@]43C)[C@@H]12 tested on B16.
Result block: 5.04

Query block: Which measured pIC50 belongs to C=C(C)[C@@H]1CC[C@]2(C(=O)O)CC[C@]3(C)[C@H](CC[C@@H]4[C@@]5(C)CC[C@H](O)[C@@](C)(CO)[C@@H]5CC[C@]43C)[C@@H]12 , tested on B16?
Result block: 4.52

Query block: Provide the documented pIC50 with B16 as the system for C=C(C)[C@@H]1CC[C@]2(C(=O)O)CC[C@]3(C)[C@H](CC[C@@H]4[C@@]5(C)C[C@H](OC(C)=O)[C@H](OC(C)=O)[C@@](C)(COC(C)=O)[C@@H]5CC[C@]43C)[C@@H]12
Result block: 4.52

Query block: Provide the documented pIC50 with B16 as the system for C=C(C)[C@@H]1CC[C@]2(C(=O)O)CC[C@]3(C)[C@H](CC[C@@H]4[C@@]5(C)C[C@H](CO)[C@H](O)[C@@](C)(CO)[C@@H]5CC[C@]43C)[C@@H]12
Result block: 4.32

Query block: # value lookup — system B16, readout pIC50, item C=C(C)[C@@H]1CC[C@]2(C(=O)OCc3ccccc3)CC[C@]3(C)[C@H](CC[C@@H]4[C@@]5(C)C[C@H](CO)[C@H](O)[C@@](C)(CO)[C@@H]5CC[C@]43C)[C@@H]12
Result block: 4.52

From: ChEMBL document CHEMBL3351759
